- System tested: Tyrosyl-DNA phosphodiesterase 1 (Homo sapiens)
- Sequence (Q9NUW8 whole entry): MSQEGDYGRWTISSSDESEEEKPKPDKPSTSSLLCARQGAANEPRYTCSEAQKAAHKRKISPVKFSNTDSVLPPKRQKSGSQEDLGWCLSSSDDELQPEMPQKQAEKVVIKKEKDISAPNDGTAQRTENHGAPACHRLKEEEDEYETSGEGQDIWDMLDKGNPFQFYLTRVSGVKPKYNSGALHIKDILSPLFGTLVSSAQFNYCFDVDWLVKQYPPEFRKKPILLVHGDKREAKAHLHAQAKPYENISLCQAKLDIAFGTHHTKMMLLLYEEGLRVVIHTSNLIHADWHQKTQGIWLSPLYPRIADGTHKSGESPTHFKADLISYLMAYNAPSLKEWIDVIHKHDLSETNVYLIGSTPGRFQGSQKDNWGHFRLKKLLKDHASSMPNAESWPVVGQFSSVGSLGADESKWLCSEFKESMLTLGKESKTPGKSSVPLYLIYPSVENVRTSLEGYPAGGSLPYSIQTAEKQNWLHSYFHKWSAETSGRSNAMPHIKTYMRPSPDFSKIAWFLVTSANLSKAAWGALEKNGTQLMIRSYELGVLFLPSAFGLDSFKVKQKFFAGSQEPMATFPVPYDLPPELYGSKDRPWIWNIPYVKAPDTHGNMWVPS
- Procedure text: Inhibition of recombinant TDP1 (unknown origin) at 111 uM using 5'-[32P]-labeled N14Y as substrate after 15 mins by PAGE analysis
Activity calls are given as the source filed them. The rule behind the calls is not given here.
Metric: inhibition

Substance smiles	Metric	Reported result
COP(=O)(OC)c1c(C)oc2c1C(=O)c1cccnc1C2=O	inhibition	inactive
Cc1oc2c(c1C(=O)Oc1cccc(NC(=O)OC(C)(C)C)c1)C(=O)c1ncccc1C2=O	inhibition	inactive
C=CC(=O)Nc1cccc(OC(=O)c2c(C)oc3c2C(=O)c2ncccc2C3=O)c1	inhibition	inactive
Cc1oc2c(c1C(=O)OCCCO)C(=O)c1ncccc1C2=O	inhibition	inactive

###

- System tested: Tyrosyl-DNA phosphodiesterase 2 (Homo sapiens, UniProt O95551)
- Procedure text: Inhibition of human TDP2 expressed in TDP2 deficient chicken DT40 whole cell extracts using TY19 DNA as substrate after 15 mins by PAGE analysis
pIC50: −log10 of the molar value.
Could you label it label 1 if measured pIC50 is 5 or higher, and label 0 otherwise?

Substance smiles	Category label
Cc1oc2c(c1C(=O)OC[C@@H](O)CO)C(=O)c1ncccc1C2=O	label 0
CCOC(=O)c1noc2c1C(=O)c1cccnc1C2=O	label 1
Cc1oc2c(c1C(=O)Oc1ccccc1Cl)C(=O)c1ncccc1C2=O	label 0
Cc1oc2c(c1C(=O)OCC(=O)O)C(=O)c1ncccc1C2=O	label 0
Cc1oc2c(c1C(=O)Oc1cccc(-c3cn(CCC(=O)O)nn3)c1)C(=O)c1ncccc1C2=O	label 0

###

- System tested: Tyrosyl-DNA phosphodiesterase 2 (Homo sapiens)
- Procedure text: Inhibition of human TDP2 expressed in TDP2 deficient chicken DT40 whole cell extracts using TY19 DNA as substrate after 15 mins by PAGE analysis
Overview of reported IC50 across a group of molecules:

Molecule	Censoring operator	IC50 / µM
Cc1oc2c(c1C(=O)OCCc1ccccc1)C(=O)c1ncccc1C2=O	=	24
Cc1oc2c(c1C(=O)Oc1ccc(S(C)(=O)=O)cc1)C(=O)c1ncccc1C2=O	=	16
Cc1oc2c(c1C(=O)Oc1ccc3c(c1)OCO3)C(=O)c1ncccc1C2=O	>	111
Cc1oc2c(c1C(=O)Oc1cccc(-c3cn(CCC(=O)O)nn3)c1)C(=O)c1ncccc1C2=O	=	13
Cc1oc2c(c1C(=O)Oc1ccccc1C#N)C(=O)c1ncccc1C2=O	>	111
Cc1oc2c(c1C(=O)OCCC#N)C(=O)c1ncccc1C2=O	=	13
Cc1oc2c(c1C(=O)Oc1cccnc1)C(=O)c1ncccc1C2=O	=	7.7
Cc1oc2c(c1C(=O)OCCCCCO)C(=O)c1ncccc1C2=O	=	19
Cc1oc2c(c1C(=O)Oc1ccccc1O)C(=O)c1cccnc1C2=O	=	39
COC(=O)[C@H](Cc1ccc(OC(=O)c2c(C)oc3c2C(=O)c2ncccc2C3=O)cc1)NC(C)=O	=	17
Cc1oc2c(c1C(=O)Oc1ccc(C#N)cc1)C(=O)c1ncccc1C2=O	=	13
Cc1oc2c(c1C(=O)Oc1ccccc1O)C(=O)c1ncccc1C2=O	=	6.6
Cc1oc2c(c1C(=O)Oc1ccc(Br)cc1)C(=O)c1ncccc1C2=O	=	12
Cc1oc2c(c1C(=O)OCCc1cn(CCCO)nn1)C(=O)c1ncccc1C2=O	=	72
Cc1oc2c(c1C(=O)OCCc1cn(CCC(=O)O)nn1)C(=O)c1ncccc1C2=O	=	16
Cc1oc2c(c1C(=O)OC[C@H](O)CO)C(=O)c1ncccc1C2=O	=	15
Cc1oc2c(c1C(=O)Oc1cccc(N)c1)C(=O)c1ncccc1C2=O	=	12
COC(=O)c1sccc1OC(=O)c1c(C)oc2c1C(=O)c1ncccc1C2=O	=	24
Cc1oc2c(c1C(=O)OCC(O)CO)C(=O)c1ncccc1C2=O (stereo not given)	=	11
COP(=O)(CCOC(=O)c1c(C)oc2c1C(=O)c1ncccc1C2=O)OC	=	17
Cc1oc2c(c1C(=O)OCCCO)C(=O)c1ncccc1C2=O	=	11
Cc1oc2c(c1C(=O)OCC(F)(F)F)C(=O)c1ncccc1C2=O	=	24
Cc1oc2c(c1C(=O)Oc1cccc(-c3cn(CCCO)nn3)c1)C(=O)c1ncccc1C2=O	=	8.3
Cc1oc2c(c1C(=O)Oc1cccc(Cl)c1)C(=O)c1ncccc1C2=O	=	11
CC(=O)c1c(C)oc2c1C(=O)c1ncccc1C2=O	=	36
COC(=O)c1c(C)oc2c1C(=O)c1ncccc1C2=O	=	12
Cc1oc2c(c1C(=O)OCCCCO)C(=O)c1ncccc1C2=O	=	12
Cc1oc2c(c1C(=O)OCCO)C(=O)c1ncccc1C2=O	=	9.8
Cc1oc2c(c1C(=O)Oc1ccc(Cl)cc1)C(=O)c1ncccc1C2=O	=	7.5
Cc1oc2c(c1C(=O)Oc1cccc(O)c1)C(=O)c1ncccc1C2=O	=	8.8
CCOC(=O)c1c(C)oc2c1C(=O)c1cccnc1C2=O	=	54
CC(=O)N1CCN(c2ccc(OC(=O)c3c(C)oc4c3C(=O)c3ncccc3C4=O)cc2)CC1	=	34
Cc1oc2c(c1C(=O)OCCC[n+]1ccccc1)C(=O)c1ncccc1C2=O	=	24
Cc1oc2c(c1C(=O)OCCOCCO)C(=O)c1ncccc1C2=O	=	13
Cc1oc2c(c1C(=O)Oc1cccc(C#N)c1)C(=O)c1ncccc1C2=O	=	10
Cc1oc2c(c1C(=O)OCCC[n+]1ccc(N(C)C)cc1)C(=O)c1ncccc1C2=O	=	38
CCOC(=O)c1noc2c1C(=O)c1ncccc1C2=O	=	3.1
CCOC(=O)c1c(C)oc2c1C(=O)c1ncccc1C2=O	=	22
Cc1oc2c(c1C(=O)Oc1ccccc1)C(=O)c1ncccc1C2=O	=	10
C#CCCOC(=O)c1c(C)oc2c1C(=O)c1ncccc1C2=O	=	15

###

- System tested: Tyrosyl-DNA phosphodiesterase 2 (Homo sapiens)
- Sequence (O95551 whole entry): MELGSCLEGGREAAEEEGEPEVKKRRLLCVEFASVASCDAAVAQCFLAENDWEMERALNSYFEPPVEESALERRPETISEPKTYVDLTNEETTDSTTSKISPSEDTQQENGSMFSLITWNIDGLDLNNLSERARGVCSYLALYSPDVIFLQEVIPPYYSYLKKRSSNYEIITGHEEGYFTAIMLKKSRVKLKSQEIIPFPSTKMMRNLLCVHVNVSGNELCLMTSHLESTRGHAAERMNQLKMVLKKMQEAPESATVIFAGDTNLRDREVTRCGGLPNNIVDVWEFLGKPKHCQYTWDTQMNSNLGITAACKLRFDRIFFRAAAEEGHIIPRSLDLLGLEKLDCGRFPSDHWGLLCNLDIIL
- Procedure text: Inhibition of recombinant human TDP2 using TY18 (alpha-[32P]-cordycepin-3'-labeled) as substrate after 15 mins by PAGE analysis
pIC50: −log10 of the molar value.

Substance smiles	Censoring operator	pIC50
Cc1oc2c(c1C(=O)Oc1ccc(Br)cc1)C(=O)c1ncccc1C2=O	=	4.46
Cc1oc2c(c1C(=O)OCC(=O)O)C(=O)c1ncccc1C2=O	=	4.29
CCOC(=O)c1c(C)oc2c1C(=O)c1ncccc1C2=O	=	4.96
Cc1oc2c(c1C(=O)OCCCCCO)C(=O)c1ncccc1C2=O	=	4.35
Cc1oc2c(c1C(=O)Oc1cccc(C#N)c1)C(=O)c1ncccc1C2=O	=	4.92
COc1ccc(NC(=O)c2c(C)oc3c2C(=O)c2ncccc2C3=O)cc1	<	3.95
Cc1oc2c(c1-c1nc3ccccc3o1)C(=O)c1ncccc1C2=O	<	3.95
Cc1oc2c(c1C(=O)OCCc1cn(CCC(=O)O)nn1)C(=O)c1ncccc1C2=O	=	4.70
Cc1oc2c(c1C(=O)Oc1cccc(-c3cn(CCCO)nn3)c1)C(=O)c1ncccc1C2=O	=	5.09

###

Reported pIC50 by item:
- System tested: Tyrosyl-DNA phosphodiesterase 2 (Homo sapiens, UniProt O95551)
- Sequence (O95551 whole entry): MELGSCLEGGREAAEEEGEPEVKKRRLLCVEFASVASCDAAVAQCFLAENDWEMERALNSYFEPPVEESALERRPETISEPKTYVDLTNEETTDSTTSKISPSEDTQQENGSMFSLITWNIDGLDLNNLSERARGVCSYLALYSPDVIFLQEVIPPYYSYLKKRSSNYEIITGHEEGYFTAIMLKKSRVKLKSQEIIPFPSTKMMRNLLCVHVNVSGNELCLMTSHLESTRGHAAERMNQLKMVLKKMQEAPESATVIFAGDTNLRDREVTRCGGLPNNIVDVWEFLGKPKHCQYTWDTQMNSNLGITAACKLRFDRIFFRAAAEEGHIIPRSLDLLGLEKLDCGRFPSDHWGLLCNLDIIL
- Procedure text: Inhibition of recombinant human TDP2 using TY18 (alpha-[32P]-cordycepin-3'-labeled) as substrate after 15 mins by PAGE analysis
pIC50: −log10 of the molar value.

Substance smiles	System tested	pIC50
CCNC(=O)c1c(C)oc2c1C(=O)c1ncccc1C2=O	Tyrosyl-DNA phosphodiesterase 2 (Homo sapiens, UniProt O95551)	< 3.95
CCNC(=O)c1c(C)oc2c1C(=O)c1cccnc1C2=O	Tyrosyl-DNA phosphodiesterase 2 (Homo sapiens, UniProt O95551)	< 3.95
CCOC(=O)c1n[nH]c2c1C(=O)c1cccnc1C2=O	Tyrosyl-DNA phosphodiesterase 2 (Homo sapiens, UniProt O95551)	< 3.95

Where these numbers come from: ChEMBL document CHEMBL4152221
